Give measured ADCP (Donor A1925144#) EC50(nM), BxPC-3 + macrophages for each item. Keep answers brief.
- MEASURED_ON: T1, human Trop2 on cells (human, UniProt P09758 27-323)
- T1 sequence (looked up): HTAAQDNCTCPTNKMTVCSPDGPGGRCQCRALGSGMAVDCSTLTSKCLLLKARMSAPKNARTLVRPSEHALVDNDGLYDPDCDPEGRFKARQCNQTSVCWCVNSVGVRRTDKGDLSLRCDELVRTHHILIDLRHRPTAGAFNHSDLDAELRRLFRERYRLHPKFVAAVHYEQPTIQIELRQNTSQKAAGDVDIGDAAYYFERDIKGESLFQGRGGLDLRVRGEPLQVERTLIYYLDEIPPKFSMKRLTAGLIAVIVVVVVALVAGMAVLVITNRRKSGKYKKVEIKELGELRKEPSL
- RUN_DESCRIPTION: cell-based or functional assay
Express your answer in nM, writing the number without its unit.

Tell us which ADCP (Donor A1925144#) EC50(nM), BxPC-3 + macrophages value is on record for PR001166 (antibody, human IgG1, kappa, V domains shown, fully human IgG1/kappa; also called antibody No. (27)) VH: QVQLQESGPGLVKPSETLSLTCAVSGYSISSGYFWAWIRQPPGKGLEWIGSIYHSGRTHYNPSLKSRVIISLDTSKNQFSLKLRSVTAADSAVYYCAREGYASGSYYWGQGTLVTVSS VL: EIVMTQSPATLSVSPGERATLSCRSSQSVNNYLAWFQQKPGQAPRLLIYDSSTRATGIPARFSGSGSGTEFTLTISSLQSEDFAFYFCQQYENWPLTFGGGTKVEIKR
0.0311

Tell us which ADCP (Donor A1925144#) EC50(nM), BxPC-3 + macrophages value is on record for comparative example 2 antibody Tab (hRS7) (antibody, human IgG1, kappa, V domains shown, prepared on the basis of sacituzumab govitecan (ChemPartner, #T07-001); naked antibody) VH: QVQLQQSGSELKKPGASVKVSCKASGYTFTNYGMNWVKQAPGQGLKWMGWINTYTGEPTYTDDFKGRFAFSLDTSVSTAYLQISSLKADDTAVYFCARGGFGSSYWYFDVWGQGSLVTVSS VL: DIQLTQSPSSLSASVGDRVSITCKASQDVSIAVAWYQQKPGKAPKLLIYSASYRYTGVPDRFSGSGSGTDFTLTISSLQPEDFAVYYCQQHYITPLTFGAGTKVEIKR
0.125

Tell us which ADCP (Donor A1925144#) EC50(nM), BxPC-3 + macrophages value is on record for PR001142 (antibody, human IgG1, kappa, V domains shown, fully human IgG1/kappa; also called antibody No. (9)) VH: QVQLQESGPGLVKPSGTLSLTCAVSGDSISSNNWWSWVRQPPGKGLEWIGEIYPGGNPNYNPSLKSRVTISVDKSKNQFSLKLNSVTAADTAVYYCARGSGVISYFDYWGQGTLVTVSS VL: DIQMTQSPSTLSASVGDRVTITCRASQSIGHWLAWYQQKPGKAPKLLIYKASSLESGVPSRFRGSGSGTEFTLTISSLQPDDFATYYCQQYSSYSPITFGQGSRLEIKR
0.0362

Tell us which ADCP (Donor A1925144#) EC50(nM), BxPC-3 + macrophages value is on record for PR001165 (antibody, human IgG1, kappa, V domains shown, fully human IgG1/kappa; also called antibody No. (26)) VH: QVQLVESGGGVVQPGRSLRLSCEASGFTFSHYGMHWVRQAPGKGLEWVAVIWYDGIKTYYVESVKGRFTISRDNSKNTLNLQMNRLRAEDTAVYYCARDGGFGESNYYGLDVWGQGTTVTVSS VL: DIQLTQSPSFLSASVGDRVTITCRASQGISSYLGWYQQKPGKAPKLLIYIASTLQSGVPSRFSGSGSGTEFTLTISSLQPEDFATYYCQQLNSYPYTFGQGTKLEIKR
0.0683

// provenance: patent US20240067748A1
